pEC50 listing for selected compounds.
assay: Antiviral activity against HIV-2 ROD infected in human MT4 cells assessed as protection against virus-induced cytotoxicity incubated for 5 days by MTT assay; type: functional, cell-based; details: HIV-2, ISOLATE ROD, MT4, 120 h
pEC50: −log10 of the molar value.

INSERT INTO measurements (chemicalstructure, measurement) VALUES
  ('Cc1ccc(-c2cnc(Nc3ccc(C#N)cc3)nc2Oc2c(C)cc(C#N)cc2C)cc1', '< 4.58'),
  ('Cc1cc(C#N)cc(C)c1Oc1nc(Nc2ccc(C#N)cc2)ncc1-c1ccc(C(F)(F)F)cc1', '< 4.46'),
  ('Cc1cc(C#N)cc(C)c1Oc1nc(Nc2ccc(C#N)cc2)ncc1-c1cccc2ccccc12', '< 3.57');

Can you look up the measured pEC50 of Cc1cc(C#N)cc(C)c1Oc1nc(Nc2ccc(C#N)cc2)ncc1-c1ccco1 for me?
< 3.51

* * *

test system: Human immunodeficiency virus 1; experiment: Antiviral activity against HIV-1 IIIB harboring RT F227L/V106A mutant infected in human MT4 cells assessed as protection against virus-induced cytotoxicity incubated for 5 days by MTT assay; type: functional, organism-based; conditions: Human immunodeficiency virus 1, IIIB, MT4, 120 h
EC50 listing for selected molecules.
# value in nM; strip the unit string

INSERT INTO measurements (chemicalstructure, measurement) VALUES
  ('COc1ccc(-c2cnc(Nc3ccc(C#N)cc3)nc2Oc2c(C)cc(C#N)cc2C)cc1', 278);

Can you look up the measured EC50 of Cc1cc(C#N)cc(C)c1Oc1nc(Nc2ccc(C#N)cc2)ncc1-c1ccc(-c2ccccc2)cc1 for me?
1220

# iterate: Cc1cc(C#N)cc(C)c1Oc1nc(Nc2ccc(C#N)cc2)ncc1-c1ccc(F)cc1
526

# iterate: Cc1cc(C)cc(-c2cnc(Nc3ccc(C#N)cc3)nc2Oc2c(C)cc(C#N)cc2C)c1
1110
